System: HCV genotype 1b (Con1) replicon in HUH-7 cells
Experiment: HCV replicon luciferase reporter assay, genotype 1b
Format: cell-based
Settings: Hepatitis C virus, Huh-7, 72 h, HCV genotype 1b replicon luciferase, 3 days incubation, read-out: LE_1b (EC50, range)
measureName: EC50

Request: Data request, read-out EC50, for CCOc1ccc2c(O[C@@H]3C[C@H]4C(=O)N[C@]5(C(=O)NS(=O)(=O)C6CC6)C[C@H]5/C=C\CC[C@@H](C)C[C@@H](C)[C@H](NC(=O)OC(C)(C)C)C(=O)N4C3)nccc2c1 [Compound 5128]
Result: < 5.46 nM

Request: # iterate: COc1ccc2c(O[C@@H]3C[C@H]4C(=O)N[C@]5(C(=O)NS(=O)(=O)C6(C)CC6)C[C@H]5/C=C\CC[C@H](C)C[C@@H](C)[C@H](NC(=O)NC(C)(C)C)C(=O)N4C3)nc(-c3ccc(OC(C)C)nc3)cc2c1 [Compound 5230]
Result: < 5.46 nM

Request: Field entry: CCCOc1cnc(O[C@@H]2C[C@H]3C(=O)N[C@]4(C(=O)NS(=O)(=O)C5CC5)C[C@H]4/C=C\CC[C@@H](C)C[C@@H](C)[C@H](NC(=O)O[C@H](C)C(F)(F)F)C(=O)N3C2)c2ccccc12 [Compound 5095]
Result: 4.82 to 103 nM

---

System: HCV genotype 1b (Con1) replicon in HUH-7 cells
Assay: HCV replicon luciferase reporter assay, genotype 1b
Format: cell-based
Details: Hepatitis C virus, Huh-7, 72 h, HCV genotype 1b replicon luciferase, 3 days incubation, read-out: LE_1b (EC50, range)
pEC50: −log10 of the molar value.
measureName: pEC50

Request: Given the entry COc1ccc2c(O[C@@H]3C[C@H]4C(=O)N[C@]5(C(=O)NS(=O)(=O)C6(CF)CC6)C[C@H]5/C=C\CC[C@@H](C)C[C@@H](C)[C@H](NC(=O)OC(C)(C)C)C(=O)N4C3)nc(-c3ccc(OC(C)C)cc3)cc2c1 , what pEC50 was observed with HCV genotype 1b (Con1) replicon in HUH-7 cells?
Result: > 8.26

Request: Next record, please: C[C@@H]1CC/C=C\[C@@H]2C[C@@]2(C(=O)NS(=O)(=O)C2(C)CC2)NC(=O)[C@@H]2C[C@@H](Oc3ncc(N4CCOCC4)c4ccccc34)CN2C(=O)[C@@H](NC(=O)OC(C)(C)C)[C@H](C)C1
Result: 9.00 to 9.29

Request: Another compound to look at: [2H]C([2H])([2H])C(OC(=O)N[C@@H]1C(=O)N2C[C@H](Oc3nnc(OC)c4ccccc34)C[C@H]2C(=O)N[C@]2(C(=O)NS(=O)(=O)C3(C)CC3)C[C@H]2/C=C\CC[C@@H](C)C[C@H]1C)(C([2H])([2H])[2H])C(F)(F)F
Result: > 8.26

Request: What do you get for C[C@H]1CC/C=C\[C@@H]2C[C@@]2(C(=O)NS(=O)(=O)C2CC2)NC(=O)[C@@H]2C[C@@H](Oc3nc4ccccc4c4ccccc34)CN2C(=O)[C@@H](NC(=O)OC(C)(C)C)[C@H](C)C1 ?
Result: > 8.26

Request: And then CC[C@@H]1C[C@H](C)CC/C=C\[C@@H]2C[C@@]2(C(=O)NS(=O)(=O)C2(CF)CC2)NC(=O)[C@@H]2C[C@@H](Oc3ncc(N4CCOCC4)c4ccccc34)CN2C(=O)[C@H]1NC(=O)OC(C)(C)C(F)(F)F , what is it?
Result: 8.30 to 9.00

Request: // same read-out, input: CC[C@@H]1C[C@@H](C)CC/C=C\[C@@H]2C[C@@]2(C(=O)NS(=O)(=O)C2(C)CC2)NC(=O)[C@@H]2C[C@@H](Oc3nccc4c5c(ccc34)OCCO5)CN2C(=O)[C@H]1NC(=O)OC(C)(C)C
Result: > 8.26
